- system under test: DNA dC->dU-editing enzyme APOBEC-3G (Homo sapiens)
- Sequence (Q9HC16 whole entry): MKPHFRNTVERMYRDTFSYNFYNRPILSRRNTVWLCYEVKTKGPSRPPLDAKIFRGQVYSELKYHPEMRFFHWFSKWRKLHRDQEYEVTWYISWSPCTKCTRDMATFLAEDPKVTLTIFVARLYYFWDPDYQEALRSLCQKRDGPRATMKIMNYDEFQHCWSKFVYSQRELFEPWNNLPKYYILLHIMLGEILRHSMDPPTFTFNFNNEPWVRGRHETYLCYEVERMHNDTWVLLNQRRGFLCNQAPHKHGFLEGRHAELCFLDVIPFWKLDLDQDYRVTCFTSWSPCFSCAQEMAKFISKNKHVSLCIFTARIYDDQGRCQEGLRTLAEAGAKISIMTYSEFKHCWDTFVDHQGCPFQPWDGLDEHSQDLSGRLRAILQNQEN
- experiment notes: Dose Response confirmation of small molecule APOBEC3G DNA Deaminase Inhibitors via a fluorescence-based single-stranded DNA deaminase assay. [Related pubchem assays (depositor defined):AID493012, AID493028]
- Type: functional
The source made the active and inactive calls. Rule as the data show it: actives have a measured IC50 and inactives only a lower limit.
// reported IC50 per item

Reference set, count: 5
INSERT INTO measurements (smiles_record, system_under_test, recorded_metric, result) VALUES
  ('CC(C)Cn1c(-c2ccc(Br)o2)n[nH]c1=S', 'DNA dC->dU-editing enzyme APOBEC-3G (Homo sapiens)', 'IC50', '2.83 µM (active)'),
  ('CC(/C=N/n1c(S)nnc1-c1cccnc1)=C\c1ccco1', 'DNA dC->dU-editing enzyme APOBEC-3G (Homo sapiens)', 'IC50', '1.93 µM (active)'),
  ('Cc1nnc(N=c2ssnc2Cl)o1', 'DNA dC->dU-editing enzyme APOBEC-3G (Homo sapiens)', 'IC50', '4.6 µM (active)'),
  ('COCc1cc(C)c(C#N)c(S)n1', 'DNA dC->dU-editing enzyme APOBEC-3G (Homo sapiens)', 'IC50', '14.1 µM (active)'),
  ('O=C(Cc1ccc(Cl)cc1Cl)Nc1cccc(S(=O)(=O)Nc2ccccc2F)c1', 'DNA dC->dU-editing enzyme APOBEC-3G (Homo sapiens)', 'IC50', '29.4 µM (active)');

Task: Any idea what IC50 was measured for Sc1nnc(-c2ccncc2)n1/N=C/c1ccccc1 ?
Output: 2.52 µM (active)
